# system tested: SARS-CoV-2 spike protein with D614G mutation (SARS-CoV-2, UniProt P0DTC2 14-1208)
value kind: Kd
Express your answer as a number followed by its unit.

# example entries with known answers
// anti-SARS-CoV-2 antibody 1118 (antibody, V domains shown) VH: EVQLVESGGGLVQPGGSLRLSCAASGFRFSNYEMNWVRQAPGKGLEWVSYISSTGGSIFYADSVKGRFTISRGDAKNSVYLQMNSLRAEDTAVYYCARAMYYYGSGTLDYWGQGTLVTVSS VL: DIQMTQSPSSLSASVGDRVTITCRASQSISRFLNWYQQKPGTAPKLLIYDVSSLQSGVPTRFSGSGSGTDFTLTISSLQPEDFATYYCQQSYTTPPAFGPGTRVDIK : Kd value = 44 pM

// anti-SARS-CoV-2 antibody 1081 (antibody, V domains shown) VH: EVQLVQSGAEVKKPGESLKISCKRSGYSFTTYWIGWVRQMPGKGLEWMGSIYPGDSDTRYSPSFQGQVTISADKSISTAYLQWSSLKASDTAMYYCASQEVPGYYYYMDVWGKGTTVTVSS VL: DIQMTQSPSSLSASVGDRVTITCRASQSISSYLHWYQQKPGKAPKLLIYAASSLQSGVPSRFSGSGSGTDFTLTISSLQPEDFATYYCQQTYSTHTWTFGQGTKVEIK : Kd value = 41 pM

Next:
// anti-SARS-CoV-2 antibody 923 (antibody, V domains shown) VH: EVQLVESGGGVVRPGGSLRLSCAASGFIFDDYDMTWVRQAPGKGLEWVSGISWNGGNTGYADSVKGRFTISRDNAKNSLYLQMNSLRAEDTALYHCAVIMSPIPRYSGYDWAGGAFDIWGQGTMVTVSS VL: SSELTQDPAVSVALGQTVRITCQGDSLRSYYASWYQQKPGQVPILVIYDKNNRPSGIPDRFSGSSSGNTASLTITGAQAEDEADYYCNSRDSSGNAVVFGGGTKLTVL : Kd value = 22 pM
